Each recorded value in this set is attributed to ChEMBL document CHEMBL2150939.

- System: MGC-803
- Assay summary: Antiproliferative activity against human MGC803 cells after 72 hrs by MTT assay
- Format: functional, cell-based
- Experimental setup: MGC-803, 72 h
Reported endpoint: IC50

Query (molecule): CC[C@@]1(O)C(=O)OCc2c1cc1n(c2=O)Cc2cc3cc(O)ccc3nc2-1 [HYDROXYCAMPTOTHECIN] ; field requested: IC50 > 20 µM

Next molecule up: CCCCCCCCC(=O)N1CCN(CCOC(=O)[C@]23CC[C@@H](C)[C@H](C)[C@H]2C2=CC[C@@H]4[C@@]5(C)CC[C@H](O)C(C)(C)[C@@H]5CC[C@@]4(C)[C@]2(C)CC3)CC1 > 20 µM

Next molecule up: C[C@H]1[C@H](C)CC[C@]2(C(=O)OCCN3CCN(C(=O)c4cccc(F)c4)CC3)CC[C@]3(C)C(=CC[C@@H]4[C@@]5(C)CC[C@H](O)C(C)(C)[C@@H]5CC[C@]43C)[C@H]12 > 20 µM
